Molecular target: Epidermal growth factor receptor (Homo sapiens, UniProt P00533)
Sequence (P00533 whole entry): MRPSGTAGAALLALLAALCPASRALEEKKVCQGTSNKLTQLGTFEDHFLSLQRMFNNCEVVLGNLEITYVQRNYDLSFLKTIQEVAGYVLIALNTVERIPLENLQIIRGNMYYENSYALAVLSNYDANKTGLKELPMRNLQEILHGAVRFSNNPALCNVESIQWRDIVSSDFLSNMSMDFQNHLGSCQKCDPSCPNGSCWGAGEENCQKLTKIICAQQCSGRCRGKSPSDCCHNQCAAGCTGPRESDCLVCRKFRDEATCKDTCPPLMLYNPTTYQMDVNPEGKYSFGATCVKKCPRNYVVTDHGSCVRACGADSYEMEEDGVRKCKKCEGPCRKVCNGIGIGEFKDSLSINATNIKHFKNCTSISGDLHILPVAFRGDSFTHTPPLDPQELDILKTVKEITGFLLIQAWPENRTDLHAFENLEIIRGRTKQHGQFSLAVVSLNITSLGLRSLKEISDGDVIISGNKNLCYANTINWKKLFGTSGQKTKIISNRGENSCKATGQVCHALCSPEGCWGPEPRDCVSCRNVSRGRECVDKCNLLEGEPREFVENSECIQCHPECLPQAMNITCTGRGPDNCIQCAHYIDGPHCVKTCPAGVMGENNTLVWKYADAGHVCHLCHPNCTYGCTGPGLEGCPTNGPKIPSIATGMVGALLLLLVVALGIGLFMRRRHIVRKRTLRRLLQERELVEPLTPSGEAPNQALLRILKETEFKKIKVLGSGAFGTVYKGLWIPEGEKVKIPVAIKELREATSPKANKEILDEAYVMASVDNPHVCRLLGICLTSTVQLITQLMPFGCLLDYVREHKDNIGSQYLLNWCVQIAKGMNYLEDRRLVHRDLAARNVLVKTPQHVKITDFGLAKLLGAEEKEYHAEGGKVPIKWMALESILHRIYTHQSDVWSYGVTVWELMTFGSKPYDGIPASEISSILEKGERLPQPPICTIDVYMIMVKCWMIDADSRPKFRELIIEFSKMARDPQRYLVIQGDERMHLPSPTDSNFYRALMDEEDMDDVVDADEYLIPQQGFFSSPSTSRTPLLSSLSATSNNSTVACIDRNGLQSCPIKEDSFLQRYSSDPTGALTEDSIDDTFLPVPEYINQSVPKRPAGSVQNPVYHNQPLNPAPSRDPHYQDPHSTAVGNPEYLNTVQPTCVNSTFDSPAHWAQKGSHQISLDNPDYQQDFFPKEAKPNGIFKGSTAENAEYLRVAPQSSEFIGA
pIC50: −log10 of the molar value.
Assay Endpoint: pIC50

Smiles Str	Tested Target	Result
CC(C)Oc1cc(-c2nc(CN3CCN(CCO)CC3)cs2)ccc1Nc1ncc(Cl)c(Nc2ccccc2S(=O)(=O)C(C)C)n1	Epidermal growth factor receptor (Homo sapiens, UniProt P00533)	< 6.00

Now look at this one.
Query: // fetch pIC50; item: COc1cc(-n2cc(CN3CCN(C)CC3)nn2)ccc1Nc1ncc(Cl)c(Nc2ccccc2S(=O)(=O)C(C)C)n1 ; system: Epidermal growth factor receptor (Homo sapiens, UniProt P00533)
Response: < 6.00
